Parameter melting point: see the listing below.
MEASURED_QUANTITY: melting point

COMPOUND	RESULT
CCCC[C@H](N)C(=O)NC(=O)[C@H](C)Nc1ccc(Cl)c(Cl)c1 [Example 51]	184 to 186 °C
COC(=O)[C@H](CC(=O)O)NC(=O)C(C)Nc1ccc(Cl)c(Cl)c1 (mixture of isomers)	53.5 to 56 °C
CCCC[C@H](NC(=O)[C@H](C)Nc1nc2ccccc2s1)C(=O)OC	99 to 120 °C
CCCC[C@H](N)C(=O)NC(=O)[C@H](C)Nc1ccc(Cl)c(Cl)c1 [Example 40]	156 to 161 °C
COC(=O)[C@H](CC(C)C)NC(=O)[C@H](C)Nc1ccc(Cl)c(Cl)c1	120 to 132 °C
CCCC[C@H](NC(=O)[C@H](C)Nc1ccc(Cl)c(Cl)c1)C(=O)OC	163 to 165 °C
COC(=O)[C@H](C)NC(=O)C(C)Nc1cc(F)cc(F)c1 (mixture of isomers)	93 to 95 °C
COC(=O)[C@H](Cc1c[nH]c2ccccc12)NC(=O)C(C)Nc1ccc(Cl)c(Cl)c1 (mixture of isomers)	54 to 66 °C
CC(Nc1ccc(Cl)c(Cl)c1)C(=O)NC(=O)[C@@H](N)C(C)C (mixture of isomers)	156 to 158 °C
CC(Nc1ccc(Cl)c(Cl)c1)C(=O)NC(=O)[C@@H](N)Cc1ccccc1 (mixture of isomers)	177 to 179 °C
CC(Nc1ccc(Cl)c(Cl)c1)C(=O)N[C@H](C(=O)N(C)C)C(C)C (mixture of isomers)	145 to 160 °C
CCCC[C@H](NC(=O)C(C)Nc1cc(F)cc(F)c1)C(=O)OC (mixture of isomers)	93 to 95 °C
COC(=O)[C@H](Cc1ccccc1)NC(=O)[C@H](C)Nc1ccc(Cl)c(Cl)c1	122 to 124.5 °C
COC(=O)[C@H](Cc1c[nH]cn1)NC(=O)C(C)Nc1ccc(Cl)c(Cl)c1 (mixture of isomers)	55 to 60 °C

Source of measurements: patent US6495693B2
